Biological target: D(4) dopamine receptor (Homo sapiens, UniProt P21917)
Sequence (P21917 whole entry): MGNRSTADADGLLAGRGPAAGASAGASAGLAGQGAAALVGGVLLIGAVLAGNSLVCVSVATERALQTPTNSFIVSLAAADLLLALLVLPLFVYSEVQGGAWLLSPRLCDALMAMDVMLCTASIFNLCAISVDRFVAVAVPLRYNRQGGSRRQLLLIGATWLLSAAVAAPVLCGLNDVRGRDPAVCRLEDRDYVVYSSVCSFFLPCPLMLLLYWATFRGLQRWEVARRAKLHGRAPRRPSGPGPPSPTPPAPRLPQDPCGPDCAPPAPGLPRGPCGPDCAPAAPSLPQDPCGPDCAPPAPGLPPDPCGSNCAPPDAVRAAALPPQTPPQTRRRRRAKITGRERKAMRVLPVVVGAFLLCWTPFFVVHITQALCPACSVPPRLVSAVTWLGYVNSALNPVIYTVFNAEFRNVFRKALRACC
pKi: −log10 of the molar value.
Compiled literature pKi, tested on D(4) dopamine receptor (Homo sapiens, UniProt P21917).
quantity_name: pKi

Check out these entries, answers already filled in.
compound | pKi
O=C(NCCCN1CCN(c2ccccc2)CC1)c1cccc2c1Cc1ccccc1-2 | 6.10
OCc1ccc(N2CCN(CCC(O)c3ccc(Cl)cc3)CC2)cc1Cl (stereo not given) | 7.96
O=C(NCCCCN1CCN(c2ccccc2Cl)CC1)c1ccc(Cl)cc1 | 6.55

P: O=C(NC/C=C/CN1CCN(c2cccc(Cl)c2Cl)CC1)c1ccc(-c2cccnc2)cc1
Q: OCc1cc2cc(OCCCCN3CCN(c4cccc(Cl)c4Cl)CC3)ccn2n1
R: CCc1cc(Cl)c(OC)c(C(=O)NCC2CCCN2CC(=O)N2CCC(c3ccccc3)(c3ccccc3)C2)c1O (stereo not given)
Request: Arrange these compounds by their pKi, starting with the largest number. Would you mind listing the labels in the order requested?
Result: Q, P, R

A: COc1c(C(=O)N[C@@H]2CCN(Cc3ccccc3)C2)cc(C#Cc2ccccc2)c2ccccc12 (stereo in doubt; 3j)
B: Fc1ccc(OCCCNCCOc2ccc(Cl)cc2)cc1
Request: Of the two listed items, A and B , which carries the larger pKi figure? Label of pick, please.
Result: B
(B: 9.08, A: 6.30)
